Target: UniProtKB P15207
Sequence (P15207 whole entry): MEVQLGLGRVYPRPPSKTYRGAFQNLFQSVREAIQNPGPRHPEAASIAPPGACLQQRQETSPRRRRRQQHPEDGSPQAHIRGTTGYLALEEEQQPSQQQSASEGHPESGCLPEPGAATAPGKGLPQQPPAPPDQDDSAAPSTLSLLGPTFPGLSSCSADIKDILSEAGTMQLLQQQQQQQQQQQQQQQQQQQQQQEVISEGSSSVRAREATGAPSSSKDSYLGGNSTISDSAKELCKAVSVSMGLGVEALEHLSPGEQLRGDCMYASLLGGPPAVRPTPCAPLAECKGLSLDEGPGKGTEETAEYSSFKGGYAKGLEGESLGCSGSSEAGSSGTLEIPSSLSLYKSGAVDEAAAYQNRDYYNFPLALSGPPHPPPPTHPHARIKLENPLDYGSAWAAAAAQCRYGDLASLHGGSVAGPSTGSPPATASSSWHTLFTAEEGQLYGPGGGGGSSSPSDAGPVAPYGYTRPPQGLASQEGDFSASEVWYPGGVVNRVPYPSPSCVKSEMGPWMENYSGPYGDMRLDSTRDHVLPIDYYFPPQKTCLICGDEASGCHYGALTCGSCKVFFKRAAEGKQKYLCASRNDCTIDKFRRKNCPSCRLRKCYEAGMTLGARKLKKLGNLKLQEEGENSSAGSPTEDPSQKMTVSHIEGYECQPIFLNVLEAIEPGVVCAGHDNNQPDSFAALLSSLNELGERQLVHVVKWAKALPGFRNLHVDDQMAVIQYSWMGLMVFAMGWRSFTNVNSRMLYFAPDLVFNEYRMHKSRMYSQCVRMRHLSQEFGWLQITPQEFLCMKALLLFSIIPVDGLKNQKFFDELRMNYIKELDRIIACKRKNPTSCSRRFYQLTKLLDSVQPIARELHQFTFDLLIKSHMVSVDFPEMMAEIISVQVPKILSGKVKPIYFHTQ
measure-name: Ki (nM)
Answers are plain numbers, in nM.

## Task # get_value(readout='Ki', item= CC(C)N1CC(C(C)(C)CO)Nc2ccc([N+](=O)[O-])cc21 (stereo unspecified) )
## Result 14.9
